target: T1, HPV 16 E6(29-38)-peptide-MHC tetramer complex (human papillomavirus 16 (HPV16); human); assay: flow cytometry, peptide-MHC tetramer staining of TCR-transduced primary human T cells;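 also: normal donor T cells activated with anti-CD3/anti-CD28, then lentivirally transduced with TCRs, with mock-transduced cells as control, co-stained for the transduction marker and CD8, tetramers presented by HLA-A02:01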
T1 construct: also called E6(29-38)-specific tetramer
value type: % of CD8- (CD4+) cells positive for E6(29-38) tetramer staining
Your reply should be a number followed by the unit it is expressed in.

# count of solved cases: 3
binder	result
TCR 57 (mouse constant regions) (TCR, V domains shown) V domain 1: TQLLEQSPQFLSIQEGENLTVYCNSSSVFSSLQWYRQEPGEGPVLLVTVVTGGEVKKLKRLTFQFGDARKDSSLHITAAQPGDTGLYLCAGARNFNKFYFGSGTKLNVKP V domain 2: GAVVSQHPSWVICKSGTSVKIECRSLDFQATTMFWYRQFPKQSLMLMATSNEGSKATYEQGVEKDKFLINHASLTLSTLTVTSAHPEDSSFYICSARSWRGGLEQFFGPGTRLTVLE	0.19%
TCR 58 (mouse constant regions) (TCR, V domains shown) V domain 1: RKEVEQDPGPFNVPEGATVAFNCTYSNSASQSFFWYRQDCRKEPKLLMSVYSSGNEDGRFTAQLNRASQYISLLIRDSKLSDSATYLCVVNRDNYGQNFVFGPGTRLSVLP V domain 2: EPEVTQTPSHQVTQMGQEVILRCVPISNHLYFYWYRQILGQKVEFLVSFYNNEISEKSEIFDDQFSVERPDGSNFTLKIRSTKLEDSAMYFCASTPRSSYEQYFGPGTRLTVTE	0.11%
TCR 63 (mouse constant regions) (TCR, V domains shown) V domain 1: SQELEQSPQSLIVQEGKNLTINCTSSKTLYGLYWYKQKYGEGLIFLMMLQKGGEEKSHEKITAKLDEKKQQSSLHITASQPSHAGIYLCGADIDDYKLSFGAGTTVTVRA V domain 2: GAGVSQSPRYKVAKRGQDVALRCDPISGHVSLFWYQQALGQGPEFLTYFQNEAQLDKSGLPSDRFFAERPEGSVSTLKIQRTQQEDSAVYLCASRPRQGYNDNEQFFGPGTRLTVLE	0.12%

Moving on to another binder below.
TCR 59 (mouse constant regions) (TCR, V domains shown) V domain 1: GQQVMQIPQYQHVQEGEDFTTYCNSSTTLSNIQWYKQRPGGHPVFLIQLVKSGEVKKQKRLTFQFGEAKKNSSLHITATQTTDVGTYFCAPKREYGNKLVFGAGTILRVKS V domain 2: EPEVTQTPSHQVTQMGQEVILRCVPISNHLYFYWYRQILGQKVEFLVSFYNNEISEKSEIFDDQFSVERPDGSNFTLKIRSTKLEDSAMYFCAYSGRASYEQYFGPGTRLTVTE has a reported % of CD8- (CD4+) cells positive for E6(29-38) tetramer staining of 0.16%
